system: SEM cells; experiment: cell viability relative to DMSO control; higher = less cytotoxic; conditions: RPMI 5 mM glucose + 10% dialyzed FBS; 48 h; 0.0211 µM
For each record, write down the corresponding cell viability.
Numbers only, in %.

Please review the entries below; each comes with its answer.
CCN(C(=O)C/1=C(O)/C2=C(C=CC=C2Cl)N(C)C1=O)C3=CC=CC=C3: 97.8
CN1CCN2c3ncccc3Cc3ccccc3C2C1 (stereo not given): 124
CC(=O)OCCN1C(=O)c2c(C)nc3ccc([S+](=O)([O-])N4CCOCC4)cc3c2C1=O: 131
O=C1Nc2ccc(I)cc2/C1=C/c1cc(Br)c(O)c(Br)c1: 111

Please find the next molecule below.
Problem: Please give the documented cell viability of CC(O)(C#Cc1ccc2c(c1)N(c1nc(N)ncc1Cl)CC2)c1nccs1 (stereo not given)
Solution: 82.5
